Biological target: T1, TRIM11 268-461 SPRY (domain begin residue: 268, domain end residue: 461), Q96F44
T1 chain: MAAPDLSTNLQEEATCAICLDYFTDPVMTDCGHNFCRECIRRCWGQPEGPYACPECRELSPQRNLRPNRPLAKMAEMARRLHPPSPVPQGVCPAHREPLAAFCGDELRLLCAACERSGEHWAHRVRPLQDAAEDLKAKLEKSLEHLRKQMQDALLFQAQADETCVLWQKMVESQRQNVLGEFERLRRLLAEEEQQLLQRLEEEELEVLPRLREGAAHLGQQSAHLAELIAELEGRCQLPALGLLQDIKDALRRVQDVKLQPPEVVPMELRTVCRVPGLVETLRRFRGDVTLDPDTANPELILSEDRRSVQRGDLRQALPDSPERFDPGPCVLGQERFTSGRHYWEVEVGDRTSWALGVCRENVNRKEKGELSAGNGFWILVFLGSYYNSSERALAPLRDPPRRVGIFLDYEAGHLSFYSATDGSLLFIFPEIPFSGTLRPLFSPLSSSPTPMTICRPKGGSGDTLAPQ
Test: phage ELISA signal ratio (GST-PRM binding over GST background); higher = stronger binding of peptide-phage to the PRM
Assay readout: phage ELISA signal ratio

Some solved cases for reference:
PFTYYSSEMYPWYIFG 11.1
GFFQFQALPEWIVYMN 12.6
TELPFTYMTRIPSWVW 30
WYEDGWWTPHRMEQTR 30

Next up:
Endpoint output: phage ELISA signal ratio of QVFWYPQAEEWPWFLD . Value?
34.5

Reference source: the supplement of paper PMC7724964
